# ASSAY_PROTOCOL: Stability in aqueous solution
# Type: physicochemical
# CONDITION_CONTEXT: neutral aqueous solution; hydrochloride(s)
PARAMETER: Stability

1. CC(N)C(=O)NC(CCCNC(=N)N)C(O)CC(=O)OCC1=C(C(=O)O)N2C(=O)[C@@](NC=O)(NC(=O)CCCC(N)C(=O)O)C2SC1 (stereo partly drawn) [TAN-547A] = slightly unstable
2. CC(N)C(=O)NC(C)C(=O)NC(C)C(=O)NC(CCCNC(=N)N)C(O)CC(=O)OCC1=C(C(=O)O)N2C(=O)[C@@](NC=O)(NC(=O)CCCC(N)C(=O)O)C2SC1 (stereo partly drawn) [TAN-547C] = slightly unstable

---

# ASSAY_PROTOCOL: Stability in aqueous solution
# Type: physicochemical
# CONDITION_CONTEXT: acidic aqueous solution; hydrochloride(s)
PARAMETER: Stability

Here's what some known entries look like.
1) CC(N)C(=O)NC(CCCNC(=N)N)C(O)CC(=O)OCC1=C(C(=O)O)N2C(=O)[C@@](NC=O)(NC(=O)CCCC(N)C(=O)O)C2SC1 (stereo partly drawn) [TAN-547A] = Unstable
2) CC(N)C(=O)NC(C)C(=O)NC(CCCNC(=N)N)C(O)CC(=O)OCC1=C(C(=O)O)N2C(=O)[C@@H](NC(=O)CCCC(N)C(=O)O)C2SC1 (stereo partly drawn) [TAN-547E] = Slightly unstable
3) CC(N)C(=O)NC(C)C(=O)NC(C)C(=O)NC(CCCNC(=N)N)C(O)CC(=O)OCC1=C(C(=O)O)N2C(=O)[C@@H](NC(=O)CCCC(N)C(=O)O)C2SC1 (stereo partly drawn) [TAN-547F] = Slightly unstable
4) CC(N)C(=O)NC(C)C(=O)NC(C)C(=O)NC(CCCNC(=N)N)C(O)CC(=O)OCC1=C(C(=O)O)N2C(=O)[C@@](NC=O)(NC(=O)CCCC(N)C(=O)O)C2SC1 (stereo partly drawn) [TAN-547C] = Unstable

Which Stability is reported for this molecule? CC(N)C(=O)NC(C)C(=O)NC(CCCNC(=N)N)C(O)CC(=O)OCC1=C(C(=O)O)N2C(=O)[C@@](NC=O)(NC(=O)CCCC(N)C(=O)O)C2SC1 (stereo partly drawn) [TAN-547B]
Unstable

Which Stability is reported for this molecule? CC(N)C(=O)NC(CCCNC(=N)N)C(O)CC(=O)OCC1=C(C(=O)O)N2C(=O)[C@@H](NC(=O)CCCC(N)C(=O)O)C2SC1 (stereo partly drawn) [TAN-547D]
Slightly unstable

---

# ASSAY_PROTOCOL: Stability in aqueous solution
# Type: physicochemical
# CONDITION_CONTEXT: basic aqueous solution; hydrochloride(s)
PARAMETER: Stability

Here's what some known entries look like.
1. CC(N)C(=O)NC(C)C(=O)NC(CCCNC(=N)N)C(O)CC(=O)OCC1=C(C(=O)O)N2C(=O)[C@@H](NC(=O)CCCC(N)C(=O)O)C2SC1 (stereo partly drawn) [TAN-547E] = Unstable
2. CC(N)C(=O)NC(CCCNC(=N)N)C(O)CC(=O)OCC1=C(C(=O)O)N2C(=O)[C@@](NC=O)(NC(=O)CCCC(N)C(=O)O)C2SC1 (stereo partly drawn) [TAN-547A] = Unstable
3. CC(N)C(=O)NC(CCCNC(=N)N)C(O)CC(=O)OCC1=C(C(=O)O)N2C(=O)[C@@H](NC(=O)CCCC(N)C(=O)O)C2SC1 (stereo partly drawn) [TAN-547D] = Unstable
4. CC(N)C(=O)NC(C)C(=O)NC(C)C(=O)NC(CCCNC(=N)N)C(O)CC(=O)OCC1=C(C(=O)O)N2C(=O)[C@@H](NC(=O)CCCC(N)C(=O)O)C2SC1 (stereo partly drawn) [TAN-547F] = Unstable
5. CC(N)C(=O)NC(C)C(=O)NC(CCCNC(=N)N)C(O)CC(=O)OCC1=C(C(=O)O)N2C(=O)[C@@](NC=O)(NC(=O)CCCC(N)C(=O)O)C2SC1 (stereo partly drawn) [TAN-547B] = Unstable

Shifting focus to the compound that follows.
Which Stability is reported for this compound? CC(N)C(=O)NC(C)C(=O)NC(C)C(=O)NC(CCCNC(=N)N)C(O)CC(=O)OCC1=C(C(=O)O)N2C(=O)[C@@](NC=O)(NC(=O)CCCC(N)C(=O)O)C2SC1 (stereo partly drawn) [TAN-547C]
Unstable
